B1: tRNA (parent)
chain: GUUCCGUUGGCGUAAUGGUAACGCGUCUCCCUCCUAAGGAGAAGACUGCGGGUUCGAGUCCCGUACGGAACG

# Variants of: B1
# Assay protocol: yeast fitness relative to wild type (ratio to wild type); higher = fitter; tRNA-Arg(CCU), competitive growth, 37 C, YPD
This sample holds only a part of the variants without activity.
Entries and their measured yeast fitness follow.
Enter the number alone.

Record excerpt, results attached:
• GUUCCGUUGGCGUGAUGGUAACGCGUCUCCCUCCUAAGGAGAAGACUGCGGGUUCGAGUCCCGUACGGGACG = 0.821
• GUUCCGUUGGCGCAAUAGUAACGCGUCUCCCUCCUAAGGAGAUGACUGCGGGUUCGAGUCCCGUACGGAACG = 0.523
• GUUCCGUUGGCGUAAAGGUAACGCGUCUCCCUCCUAAGGAGAAGACUGUGGGUUCGAGUCCCGUACGGUACG = 0.647
• GUUCCGUUGGGGUAAUGGUAACGCGUCUCCCUCCUAAGGAGAAGACUGCGGGUUCGGGUCCCGUACGGAACG = 0.624
• GUUCCGAUGGCGUAACGGUAUCGCGACUCCCUCCUAAGGAGAAGAUUGCGGGUUCGAGUUCCGUACGGAACG = 0.55

yeast fitness for GUUCCGUUGGCGUCAUGGUAACGCAUCUCCCUCCUAAGGAGAAGACUGCGGGUUCGAGUCCCGUACGGAACG ?
0.889

Can you check GUUCCGUUGGCGUAAUGGUAACGCGUCUCCCUCCUAAGGCGAAGACUGCGGGUUCGAGUCCCGUACGAAACG next?
0.933

Entry to check: GUUCCGUUGGCAGAAUGGCAGCGCGUCUCCCUCCUAAGGAGAAGACUGUGGAUUCGAGGCCCGUACGGAACG
0.525

Follow-up entry: GUUUCGUUGGAGUAAUGGUAAUGCGUCUCCCUCCUAAGGAGUAGACUGCGGGUUCGAGUCCCGUACGGAACG
0.577

What would you report for GUUCCGUUGGCGUCAUGGUAACGUGUCUCCGUCCUUAGGAGAAGACUGCGGGUUCGAGUCCCGUACGGAACG ?
0.664
